System: LoVo
Test summary: SRB colorimetric assay of cell growth and viability, LoVo
Format: cell-based, human
Stated conditions: 48 hours exposure; read-out: LC50 LOVO
Where a SMILES comes first, the peptide text is derived from it. Bridges are numbered along the chain shown (N, C = ends). [ ]: non-standard residue; d: D form. The star is where a group is joined. d(aIle) = CC[C@H](C)[C@@H](N)C(=O)O; d(aThr) = C[C@@H](O)[C@@H](N)C(=O)O; hCha = N[C@@H](CCC1CCCCC1)C(=O)O; Hexanoyl(5-Me) = CC(C)CCCC(=O)*; Myristoyl = CCCCCCCCCCCCCC(=O)*; dCha = N[C@H](CC1CCCCC1)C(=O)O; Orn = NCCC[C@H](N)C(=O)O; Dhb = C/C=C(\N)C(=O)O
Consider the following compounds; for each one, report its log10 CC50.
Short version: log10 scale, CC50, µM.

[in] Provide log10 CC50 value for the following compound: C/C=C1\NC(=O)[C@H](Cc2ccccc2)NC(=O)[C@@H](C(C)C)NC(=O)[C@@H]([C@@H](C)CC)NC(=O)[C@H](NC(=O)[C@H](NC(=O)[C@H](CCCN)NC(=O)[C@H]2CCCN2C(=O)[C@H](NC(=O)[C@H](CCC2CCCCC2)NC(=O)[C@@H](NC(=O)[C@H](NC(=O)CCCC(C)C)C(C)C)[C@@H](C)O)C(C)C)[C@@H](C)CC)[C@@H](C)OC(=O)[C@H](C(C)C)NC1=O [Compound 9, [hCh^11]-KF] ({Hexanoyl(5-Me)}-[dV]T[hCha][dV][dP][Orn][d(aIle)][d(aThr)][d(aIle)][dV]F[Dhb]V; ester 8-C)
[out] -0.41

[in] Entry C/C=C1\NC(=O)[C@H](Cc2ccccc2)NC(=O)[C@@H](C(C)C)NC(=O)[C@@H]([C@@H](C)CC)NC(=O)[C@H](NC(=O)[C@H](NC(=O)[C@H](CCCN)NC(=O)[C@H]2CCCN2C(=O)[C@H](NC(=O)[C@@H](NC(=O)[C@@H](NC(=O)[C@H](NC(=O)Cc2cc(F)cc(F)c2)C(C)C)[C@@H](C)O)C(C)C)C(C)C)[C@@H](C)CC)[C@@H](C)OC(=O)[C@H](C(C)C)NC1=O [Compound 22, [3,5-dFPhAc^14]-KF] needs its log10 CC50 filled in; supply it.
[out] 0.49

[in] Kindly indicate its recorded log10 CC50. Item: C/C=C1\NC(=O)[C@H](Cc2ccccc2)NC(=O)[C@@H](CC2CCCCC2)NC(=O)[C@@H](CC2CCCCC2)NC(=O)[C@H](NC(=O)[C@@H](CC2CCCCC2)NC(=O)[C@H](CCCN)NC(=O)[C@H]2CCCN2C(=O)[C@H](NC(=O)[C@@H](NC(=O)[C@@H](NC(=O)[C@H](NC(=O)CCCC(C)C)C(C)C)[C@@H](C)O)C(C)C)C(C)C)[C@@H](C)OC(=O)[C@H](C(C)C)NC1=O [Compound 11, [D-Cha^4, D-Cha^5, D-Cha^7]-KF] ({Hexanoyl(5-Me)}-[dV]TV[dV][dP][Orn][dCha][d(aThr)][dCha][dCha]F[Dhb]V; ester 8-C)
[out] -0.39

[in] Recall and state the measured log10 CC50 for C/C=C1\NC(=O)[C@H](Cc2ccccc2)NC(=O)[C@@H](C(C)C)NC(=O)[C@@H]([C@@H](C)CC)NC(=O)[C@H](NC(=O)[C@H](NC(=O)[C@H](CCCN)NC(=O)[C@H]2CCCN2C(=O)[C@H](NC(=O)[C@@H](NC(=O)[C@@H](NC(=O)[C@@H](Cc2ccccc2)NC(=O)CCCC(C)C)[C@@H](C)O)C(C)C)C(C)C)[C@@H](C)CC)[C@@H](C)OC(=O)[C@H](C(C)C)NC1=O [Compound 36, [D-Phe^13]-KF] .
[out] 0.39

[in] For the compound C/C=C1\NC(=O)[C@H](Cc2ccccc2)NC(=O)[C@@H](C(C)C)NC(=O)[C@@H]([C@@H](C)CC)NC(=O)[C@H](NC(=O)[C@H](NC(=O)[C@H](CCCN)NC(=O)[C@H]2CCCN2C(=O)[C@H](NC(=O)[C@@H](NC(=O)[C@@H](NC(=O)[C@H](NC(=O)CCCCC(C)=O)C(C)C)[C@@H](C)O)C(C)C)C(C)C)[C@@H](C)CC)[C@@H](C)OC(=O)[C@H](C(C)C)NC1=O [Compound 27, [6-OHep^14]-KF] , report log10 CC50.
[out] 0.83

[in] Dear colleague, please send me the reported log10 CC50 for C/C=C1\NC(=O)[C@H](Cc2ccccc2)NC(=O)[C@@H](C(C)C)NC(=O)[C@@H]([C@@H](C)CC)NC(=O)[C@H](NC(=O)[C@H](NC(=O)[C@H](CCCN)NC(=O)[C@H]2CCCN2C(=O)[C@H](NC(=O)CCCCCCCCCCCCC)C(C)C)[C@@H](C)CC)[C@@H](C)OC(=O)[C@H](C(C)C)NC1=O [Compound 32] (Myristoyl-[dV][dP][Orn][d(aIle)][d(aThr)][d(aIle)][dV]F[Dhb]V; ester 5-C) when you can.
[out] 0.89

[in] Determine its reported log10 CC50: C/C=C1\NC(=O)[C@H](Cc2ccccc2)NC(=O)[C@@H](C(C)C)NC(=O)[C@@H]([C@@H](C)CC)NC(=O)[C@H](NC(=O)[C@H](NC(=O)[C@H](CCCN)NC(=O)[C@H]2CCCN2C(=O)[C@H](NC(=O)[C@@H](NC(=O)[C@H](CC(C)C)NC(=O)CCCC(C)C)C(C)C)C(C)C)[C@@H](C)CC)[C@@H](C)OC(=O)[C@H](C(C)C)NC1=O [Compound 54, [Leu^12, noD-Val^13]-KF] ({Hexanoyl(5-Me)}-LV[dV][dP][Orn][d(aIle)][d(aThr)][d(aIle)][dV]F[Dhb]V; ester 7-C)
[out] 0.62

[in] Check the records and state log10 CC50 for C/C=C1\NC(=O)[C@H](Cc2ccccc2)NC(=O)[C@@H](C(C)C)NC(=O)[C@@H]([C@@H](C)CC)NC(=O)[C@H](NC(=O)[C@H](NC(=O)[C@H](CCCN)NC(=O)[C@H]2CCCN2C(=O)[C@H](NC(=O)[C@@H](NC(=O)[C@@H](NC(=O)[C@H](NC(=O)C(F)(F)C(F)(F)C(F)(F)C(F)(F)C(F)(F)C(F)(F)F)C(C)C)[C@@H](C)O)C(C)C)C(C)C)[C@@H](C)CC)[C@@H](C)OC(=O)[C@H](C(C)C)NC1=O [Compound 26, [Pfh^14]-KF]
[out] 0.48
